- System Under Test: TrkA (histidine-tagged recombinant human TrkA, cytoplasmic domain) (Homo sapiens (Human))
- Sequence (P04629 440-796): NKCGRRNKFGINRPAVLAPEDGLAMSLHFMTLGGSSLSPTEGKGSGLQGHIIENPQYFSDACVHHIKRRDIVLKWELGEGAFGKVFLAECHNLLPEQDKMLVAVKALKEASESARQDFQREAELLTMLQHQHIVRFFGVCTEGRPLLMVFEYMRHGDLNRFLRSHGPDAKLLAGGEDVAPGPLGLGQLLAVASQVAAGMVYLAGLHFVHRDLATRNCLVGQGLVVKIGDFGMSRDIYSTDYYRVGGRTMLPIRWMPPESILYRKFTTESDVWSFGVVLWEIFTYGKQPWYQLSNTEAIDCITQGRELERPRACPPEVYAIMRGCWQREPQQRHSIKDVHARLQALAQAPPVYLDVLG
- Measurement Description: TrkA ELISA Assay
- Type: biochemical
- Experimental Setup: Table 2; read-out: TrkA IC50
# strict inequality: IC50 < 6 nM yields 1 (yes), everything else yields 0 (no)

# Compound, Classification
measured = [
    ("CC1(NC(=O)c2cnn3ccc(N4CCC[C@@H]4c4cncc(F)c4)nc23)CC1 [Example 91]", "1 (yes)"),
    ("Cc1ncc(F)cc1[C@H]1CCCN1c1ccn2ncc(C(=O)NC3(C)CC3)c2n1 [Example 190]", "1 (yes)"),
    ("CNC(=O)c1cnn2ccc(N3CCC[C@@H]3c3cncc(F)c3)nc12 [Example 114]", "0 (no)"),
    ("NC(=O)c1cnn2ccc(N3CCC[C@@H]3c3cc(F)ccc3F)nc12 [Example 30]", "1 (yes)"),
    ("O=C(NC1(C(F)(F)F)CC1)c1cnn2ccc(N3CCC[C@@H]3c3cncc(F)c3)nc12 [Example 98]", "0 (no)"),
    ("Cc1ncc(F)cc1[C@H]1CCCN1c1ccn2ncc(C(=O)NC3CC3)c2n1 (stereo in doubt) [Example 181]", "0 (no)"),
]

Find out if reported IC50 for CC(C)NC(=O)c1cnn2ccc(N3CCC[C@@H]3c3cncc(F)c3)nc12 [Example 93] is less than 6 nM
1 (yes)

Find out if reported IC50 for O=C(NCC1CC1)c1cnn2ccc(N3CCC[C@@H]3c3cncc(F)c3)nc12 [Example 106] is less than 6 nM
0 (no)

* * *

A collection of molecules and their measured IC50
- System Under Test: Human Jak2 kinase domain (Homo sapiens (Human), UniProt O60674)
- Sequence (O60674 808-1132): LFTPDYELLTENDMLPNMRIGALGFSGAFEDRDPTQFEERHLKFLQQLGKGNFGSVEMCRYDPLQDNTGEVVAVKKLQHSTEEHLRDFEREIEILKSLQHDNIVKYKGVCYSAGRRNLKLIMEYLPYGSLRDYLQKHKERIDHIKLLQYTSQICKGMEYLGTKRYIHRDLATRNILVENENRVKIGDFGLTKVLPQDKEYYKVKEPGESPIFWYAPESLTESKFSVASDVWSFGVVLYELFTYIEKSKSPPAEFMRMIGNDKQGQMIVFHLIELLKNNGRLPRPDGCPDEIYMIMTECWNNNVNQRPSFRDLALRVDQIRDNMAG
- Measurement Description: Jak2 Inhibition Assay (Omnia kinase assay)
- Format: biochemical
- Experimental Setup: Table 1; 500 μM ATP; >1000 nM when >50% inhibition not observed at 1000 nM; read-out: Jak2 Enzyme IC50

Worked cases, answers included:
# Smiles Representation, IC50
records = [
    ("CC1(O)CN(C(=O)c2cnn3ccc(N4CCC[C@@H]4c4cncc(F)c4)nc23)C1", "> 1000 nM"),
    ("O=C(NC1CCOCC1)c1cnn2ccc(N3CCC[C@@H]3c3cc(F)ccc3F)nc12", "257 nM"),
    ("COCCOc1ccc(F)cc1[C@H]1CCCN1c1ccn2ncc(C(N)=O)c2n1", "> 1000 nM"),
]

Provide one value: measured IC50 of C[C@@H](CO)NC(=O)c1cnn2ccc(N3CCC[C@@H]3c3cc(F)ccc3F)nc12
> 1000 nM

* * *

The listing below reports IC50 for molecules tested on GST-tagged human Jak1 kinase domain (Homo sapiens (Human)).
Sequence (P23458 866-1154): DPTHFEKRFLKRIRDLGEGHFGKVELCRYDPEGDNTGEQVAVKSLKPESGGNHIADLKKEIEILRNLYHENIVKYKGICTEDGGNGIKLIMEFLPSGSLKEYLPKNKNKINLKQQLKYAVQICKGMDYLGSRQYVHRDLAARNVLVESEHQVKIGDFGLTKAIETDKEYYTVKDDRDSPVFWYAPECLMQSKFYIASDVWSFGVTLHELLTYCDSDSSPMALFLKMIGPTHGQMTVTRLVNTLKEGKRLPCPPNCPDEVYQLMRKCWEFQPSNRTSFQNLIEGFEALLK

Worked cases, answers included:
# Molecule, IC50
measured = [
    ("C[C@@H](NC(=O)c1cnn2ccc(N3CCC[C@@H]3c3cncc(F)c3)nc12)C1CC1", "> 1000 nM"),
    ("O=C(NCC1CC1)c1cnn2ccc(N3CCC[C@@H]3c3cncc(F)c3)nc12", "> 1000 nM"),
    ("Cc1ncc(F)cc1[C@H]1CCCN1c1ccn2ncc(C(=O)NC3CC3)c2n1 (stereo in doubt)", "> 1000 nM"),
]

Please indicate recorded IC50 of NC(=O)c1cnn2ccc(N3CCC[C@@H]3c3cc(F)ccc3F)nc12 measured with GST-tagged human Jak1 kinase domain (Homo sapiens (Human)).
> 1000 nM

Please indicate recorded IC50 of COc1ncc(F)cc1[C@H]1CCCN1c1ccn2ncc(C(=O)N[C@H]3CC[C@H](O)CC3)c2n1 measured with GST-tagged human Jak1 kinase domain (Homo sapiens (Human)).
546 nM

Please indicate recorded IC50 of CC(C)NC(=O)c1cnn2ccc(N3CCC[C@@H]3c3cncc(F)c3)nc12 measured with GST-tagged human Jak1 kinase domain (Homo sapiens (Human)).
> 1000 nM
